protocol_description: Drug level in rat brain at 0.1 mg, iv at 1 hr
Type: ADME, organism-based
condition_notes: read-out: Drug uptake
test_readout: concentration at 1 h (ng/g)

Worked set:
smiles_code	concentration at 1 h [ng/g]
Cc1noc(NC(=O)N2CCN(c3nc(-c4ccccc4)ns3)CC2)c1C	25
Cc1noc(NC(=O)N2CCN(c3nc(-c4ccccc4)cs3)CC2)c1C	23

[P] Cc1noc(NC(=O)N2CCN(c3nc(-c4ccc(F)cc4)cs3)CC2)c1C
[Q] Cc1noc(NC(=O)N2CCN(c3nc(-c4ccc(F)cc4F)cs3)CC2)c1C
Which record would sort first by descending concentration at 1 h, P or Q ? Select an item and report its label. P
(P: 132 ng/g, Q: 82 ng/g)

----------
protocol_description: Bioavailability in rat
Format: ADME, organism-based
condition_notes: in vivo
test_readout: bioavailability (%)
Answer format: numeric, % implied, no suffix.

Which bioavailability is reported for this molecule? "O=C(Nc1noc2ccccc12)N1CCN(c2nc(-c3ccccc3)ns2)CC1" 5

----------
protocol_description: Drug level in rat brain at 0.1 mg, iv at 1 hr
Assay type: ADME, organism-based
condition_notes: read-out: Drug uptake
test_readout: concentration at 1 h (ng/g)

Worked set:
smiles_code	recorded_value
Cc1noc(NC(=O)N2CCN(c3nc(-c4ccc(F)cc4)ns3)CC2)c1C	17
Cc1noc(NC(=O)N2CCN(c3nc(-c4ccccc4F)cs3)CC2)c1C	103

[A] Cc1noc(NC(=O)N2CCN(c3nc(-c4cccc(F)c4)cs3)CC2)c1C
[B] Cc1noc(NC(=O)N2CCN(c3nc(-c4cccc(F)c4)ns3)CC2)c1C
[C] Cc1noc(NC(=O)N2CCN(c3nc(-c4ccccc4F)ns3)CC2)c1C
Which order do these items take when sorted by rising concentration at 1 h? List them. Answer format: the labels, ordered as requested. C, B, A
(C: 4.6 ng/g, B: 12 ng/g, A: 101 ng/g)
